Experiment: self-splicing fitness, log relative to wild type (ln ratio); higher = more splicing; Tetrahymena group I intron in knt gene, E. coli kanamycin selection, DiMSum; sequences stand for … in CUCUCU…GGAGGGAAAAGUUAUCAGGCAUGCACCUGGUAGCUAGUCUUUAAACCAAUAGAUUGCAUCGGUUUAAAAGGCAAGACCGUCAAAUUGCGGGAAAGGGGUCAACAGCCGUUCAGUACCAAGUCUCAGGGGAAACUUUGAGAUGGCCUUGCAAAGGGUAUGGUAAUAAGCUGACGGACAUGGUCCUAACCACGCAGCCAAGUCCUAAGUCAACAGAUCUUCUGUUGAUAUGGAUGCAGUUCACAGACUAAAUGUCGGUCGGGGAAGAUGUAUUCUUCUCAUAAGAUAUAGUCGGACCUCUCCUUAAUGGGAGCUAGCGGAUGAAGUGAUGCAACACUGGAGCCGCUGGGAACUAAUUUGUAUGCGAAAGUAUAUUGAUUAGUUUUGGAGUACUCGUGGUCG;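 note: selection with 25 µg/mL kanamycin versus none on LB agar overnight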
Settings: 30 °C
metric name: self-splicing fitness (ln)
Please give only the number in your answer, with no unit.

>>> df
            biosequence  reported_value
0  UGCCAGCAAUAUUACGUGCA           -2.55
1  CAUGAGCAAUAUUACGGCUG          -0.641
2  CCAAAGCAAUAUUACGGCGU           -3.49
3  UGUGAGCAAUAUUACGGGUG            -2.6
4  GAAAAGCAAUAUUACGGUAU           -2.38

QUERY: Using the record for GUACAGCAAUAUUACGCGGC , report its self-splicing fitness (ln).
RESULT: -1.83

QUERY: Also check ACCGAGCAAUAUUACGCGAU
RESULT: -2.5

These data points were gathered from the supplement of paper PMC7877785.
